compounds and their reported melting point
Report as: number unit

1) Cc1cc([C@@H]2CN(C(=O)c3cc(Cl)ncc3C(F)(F)F)CC[C@H]2C)n2ncnc2n1 213.25 °C
2) C[C@@H]1CCN(C(=O)c2cnc3c(F)cccc3c2)C[C@H]1c1cc(C(F)F)nc2ncnn12 226.36 °C

--- query ---
Query :: What does the record list as melting point for "Cc1cnc(C(F)(F)F)cc1C(=O)N1CC[C@@H](C)[C@H](c2cc(C(F)F)nc3ncnn23)C1" ?
Result :: 228.39 °C

====

- system: Human recombinant PDE2A (hPDE2A) (Homo sapiens, UniProt O00408)
- Construct: His tag (inferred from metal chelate purification); made in house; host or cells: Sf9 insect cells (baculovirus)
- Sequence (O00408 whole entry): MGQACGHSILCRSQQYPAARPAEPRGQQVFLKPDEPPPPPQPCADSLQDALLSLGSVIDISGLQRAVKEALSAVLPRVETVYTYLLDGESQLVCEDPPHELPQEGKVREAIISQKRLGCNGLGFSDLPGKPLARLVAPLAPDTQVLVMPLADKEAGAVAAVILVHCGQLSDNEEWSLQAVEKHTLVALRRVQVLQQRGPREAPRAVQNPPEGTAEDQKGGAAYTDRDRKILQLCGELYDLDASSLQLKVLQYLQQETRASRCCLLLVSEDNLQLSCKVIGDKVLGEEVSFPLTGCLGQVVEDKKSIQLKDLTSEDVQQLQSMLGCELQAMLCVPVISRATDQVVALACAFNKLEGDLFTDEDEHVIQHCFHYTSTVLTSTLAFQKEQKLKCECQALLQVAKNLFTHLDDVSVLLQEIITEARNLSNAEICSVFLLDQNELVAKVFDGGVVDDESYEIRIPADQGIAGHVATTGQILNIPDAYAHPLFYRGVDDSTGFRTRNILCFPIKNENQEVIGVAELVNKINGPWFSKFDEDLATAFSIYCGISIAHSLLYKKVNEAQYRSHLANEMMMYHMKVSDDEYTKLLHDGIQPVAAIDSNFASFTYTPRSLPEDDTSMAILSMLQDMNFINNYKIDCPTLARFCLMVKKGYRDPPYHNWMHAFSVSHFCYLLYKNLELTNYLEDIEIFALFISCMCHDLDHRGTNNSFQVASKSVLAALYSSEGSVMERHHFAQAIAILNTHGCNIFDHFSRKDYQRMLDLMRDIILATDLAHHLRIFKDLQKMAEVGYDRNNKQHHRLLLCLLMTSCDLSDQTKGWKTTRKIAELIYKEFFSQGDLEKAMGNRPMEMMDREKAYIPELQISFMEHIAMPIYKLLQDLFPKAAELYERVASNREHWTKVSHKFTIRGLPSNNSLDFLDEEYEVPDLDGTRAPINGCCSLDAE
- assay: In vitro assay PDE2A (SPA, 3H-cGMP hydrolysis)
- Assay type: biochemical
- setup conditions: read-out: hPDE2A pIC50 (converted)
compounds and their reported IC50
# unit: nM | format: bare number

// worked examples, IC50 included
compound	result units	data value
O=C(c1ccc2c(c1)OC(F)(F)O2)N1[C@H]2CC[C@H](c3cc(C(F)F)nc4ncnn34)[C@@H]1CC2	nM	25.1
Cn1cnc2cc(C(=O)N3[C@H]4CC[C@H](c5cc(C(F)F)nc6ncnn56)[C@@H]3CC4)ccc21	nM	11.2
C[C@@H]1CCN(C(=O)c2cc(C(C)(C)C)on2)C[C@H]1c1cc(C(F)F)nc2ncnn12	nM	151
C/C(=C\c1ccc(F)cc1)C(=O)N1[C@H]2CC[C@H](c3cc(C(F)F)nc4ncnn34)[C@@H]1CC2	nM	33.9
COc1cc(C(=O)N2CC[C@@H](C)[C@H](c3cc(C(F)F)nc4ncnn34)C2)c(F)c(C)n1	nM	4.9

Query :: What does the record list as IC50 for "C[C@@H]1CCN(C(=O)c2cnc(Cl)c(Cl)c2)C[C@H]1c1cc(C(F)F)nc2ncnn12" ?
Result :: 1.58

Query :: What does the record list as IC50 for "C[C@@H]1CCN(C(=O)c2cnn(C)c2)C[C@H]1c1cc(C(F)F)nc2ncnn12" ?
Result :: 9.55

Query :: What does the record list as IC50 for "Cc1cc(C(=O)N2[C@H]3CC[C@H](c4cc(C(F)F)nc5ncnn45)[C@@H]2CC3)cc(OC(F)F)n1" ?
Result :: 11.2

Query :: What does the record list as IC50 for CC1(c2cc(C(F)F)nc3ncnn23)CCCN(C(=O)c2ccc3occc3c2)C1 (stereo not drawn) ?
Result :: 646

Query :: What does the record list as IC50 for "Cc1cc([C@@H]2CN(C(=O)c3oc4ccccc4c3C)CC[C@H]2C)n2ncnc2n1" ?
Result :: 0.794

Query :: What does the record list as IC50 for "C[C@@H]1CCN(C(=O)c2ccc(C(F)(F)F)nc2)C[C@H]1c1cc(C(F)F)nc2ncnn12" ?
Result :: 97.7

====

- system: PDE2A (Rattus norvegicus, UniProt Q01062)
- Construct: Twenty μm-thick striatal sections were cut; from tissue; host or cells: rat brain, striatal sections
- Sequence (Q01062 whole entry): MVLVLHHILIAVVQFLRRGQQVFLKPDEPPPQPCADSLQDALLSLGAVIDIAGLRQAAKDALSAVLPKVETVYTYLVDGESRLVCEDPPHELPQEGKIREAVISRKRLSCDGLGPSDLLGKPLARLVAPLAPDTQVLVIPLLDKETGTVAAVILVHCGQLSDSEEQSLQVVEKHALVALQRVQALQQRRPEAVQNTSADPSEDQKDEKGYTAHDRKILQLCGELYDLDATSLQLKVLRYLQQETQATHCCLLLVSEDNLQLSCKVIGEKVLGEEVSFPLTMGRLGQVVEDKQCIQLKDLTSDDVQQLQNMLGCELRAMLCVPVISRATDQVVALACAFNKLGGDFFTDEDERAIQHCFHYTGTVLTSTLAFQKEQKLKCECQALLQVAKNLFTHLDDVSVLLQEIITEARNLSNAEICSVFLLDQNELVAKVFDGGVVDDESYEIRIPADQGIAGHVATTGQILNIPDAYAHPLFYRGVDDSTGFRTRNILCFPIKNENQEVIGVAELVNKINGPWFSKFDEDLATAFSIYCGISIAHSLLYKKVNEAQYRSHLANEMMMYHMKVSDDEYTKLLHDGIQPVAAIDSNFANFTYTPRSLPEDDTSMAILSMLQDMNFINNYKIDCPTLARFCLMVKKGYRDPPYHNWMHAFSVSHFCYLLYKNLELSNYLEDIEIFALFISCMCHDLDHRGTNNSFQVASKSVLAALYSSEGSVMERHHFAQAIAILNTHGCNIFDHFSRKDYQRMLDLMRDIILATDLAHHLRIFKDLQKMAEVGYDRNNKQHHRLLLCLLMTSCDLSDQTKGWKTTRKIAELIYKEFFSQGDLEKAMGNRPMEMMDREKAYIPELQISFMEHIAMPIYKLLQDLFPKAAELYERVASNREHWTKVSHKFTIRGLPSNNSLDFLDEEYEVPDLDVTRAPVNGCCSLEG
- assay: PDE2 occupancy by test compounds, ex-vivo autoradiography with [3H]B-17a
- Assay type: in vivo, Male Wistar rats
- setup conditions: po, 10 mg/kg, route PO (oral), percentage receptor occupancy, ex-vivo autoradiography, striatum
compounds and their reported receptor occupancy at 10 mg/kg
# unit: % | format: bare number

// worked examples, receptor occupancy at 10 mg/kg included
1. Cc1cc(C#N)cc(C(=O)N2CC[C@@H](C)[C@H](c3cc(C(F)F)nc4ncnn34)C2)c1 0
2. Cc1cc(C(=O)N2CC[C@@H](C)[C@H](c3cc(C(F)F)nc4ncnn34)C2)c(F)cn1 45
3. C[C@@H]1CCN(C(=O)c2cc(Cl)cc(Cl)c2)C[C@H]1c1cc(C(F)F)nc2ncnn12 17
4. Cc1cc([C@@H]2CN(C(=O)c3cc(C4CC4)ncc3C(F)(F)F)CC[C@H]2C)n2ncnc2n1 -12
5. COc1ccc(C(=O)N2CC[C@@H](C)[C@H](c3cc(C(F)F)nc4ncnn34)C2)cc1OC(F)F -19
6. Cc1cc([C@@H]2CN(C(=O)c3cc(Cl)ncc3C)CC[C@H]2C)n2ncnc2n1 4

--- query ---
Query :: What does the record list as receptor occupancy at 10 mg/kg for "Cc1cc(C)cc(C(=O)N2CC[C@@H](C)[C@H](c3cc(C(F)F)nc4ncnn34)C2)c1" ?
Result :: 4
